- Tested on: Klebsiella pneumoniae Y60
- assay_overview: Antibacterial activity, Heart Infusion Agar Dilution Method, Klebsiella pneumoniae Y60
- Format: cell-based
- experimental_parameters: pH 7.2, read-out: Minimum Inhibitory Concentration
Exercise: state measured MIC for each of the compounds provided.
Report only the number, with the unit µg/mL understood.

Data request: Provide measured MIC value, entry: Cc1nnc(SCC2=C(C(=O)O)N3C(=O)[C@@H](NC(=O)Cn4cnnn4)[C@H]3SC2)s1 [Cefazolin, reference compound]
Data returned: 3.12

Data request: Provide measured MIC value, entry: C[C@H]1C=C(C(=O)O)N2C(=O)[C@@H](NC(=O)[C@H](N)c3ccccc3)[C@H]2C1 (relative stereo)
Data returned: 100
